What follows is a record of IC50 for gelatinase A (MMP-2) (Homo sapiens).
Experimental readout: IC50 (nM)

{"Compound": "O=CN(O)C(CS(=O)(=O)N1CCc2ccc(F)cc2C1)C1CCCC1 (stereo not drawn)", "IC50 (nM)": 411}

[P] O=CN(O)C(COc1ccccc1)CS(=O)(=O)N1CCc2ccc(Cl)cc2C1 (stereo not drawn)
[Q] O=CN(O)C(CS(=O)(=O)N1CCc2ccc(Cl)cc2C1)C1CCCC1 (stereo not drawn)
Hi, I'm comparing two records. Which one has the lower IC50, P or Q ? Lab note: record the label of whichever item you select. P

[a] O=CN(O)C(CCC(F)(F)F)CS(=O)(=O)N1CCc2ccc(Cl)cc2C1 (stereo not drawn)
[b] CC(C)CC(CS(=O)(=O)N1CCc2ccc(Br)cc2C1)N(O)C=O (stereo not drawn)
Form: Entry with minimum IC50 (choose one): a / b Provide the label of your selected option as the answer. b

---

# Target desc: UniProt P39900
pIC50: −log10 of the molar value.
Experimental readout: pIC50

In the examples that follow, each entry is paired with its recorded pIC50.
{"Compound": "O=CN(O)C(CCc1cccnc1)CS(=O)(=O)N1CCc2ccc(Cl)cc2C1 (centres unmarked) [Example 86]", "Value reported": 8.01}
{"Compound": "O=CN(O)C(CS(=O)(=O)N1CCc2ccccc2C1)c1ccsc1 (centres unmarked) [Example 7]", "Value reported": 7.74}

[P] O=CN(O)C(CS(=O)(=O)N1CCc2ccccc2C1)c1cccnc1 (centres unmarked) [Example 10]
[Q] CC(C)(CS(=O)(=O)N1CCc2ccc(Br)cc2C1)N(O)C=O [Example 56]
[R] O=CN(O)[C@@H](CS(=O)(=O)N1CCc2ccc(C(F)(F)F)cc2C1)[C@H]1CCCO1 [Example 32]
Highest pIC50 first, then in falling order down to the smallest. Please express your ranking as an ordered list of the labels. P, Q, R
(P: 7.89, Q: 7.29, R: 6.77)

---

# Target desc: MMP-14 (Homo sapiens)
# Test: MMP-14 enzyme inhibition assay (coumarin-labelled peptide substrate)
# Type: biochemical
# Condition info: @ 5 μM; read-out: percentage inhibition MMP14
# Procedure: Compounds of the invention were tested to assess their activities as inhibitors of MMP-1, MMP-2, MMP-9, MMP-14, MMP-12 and TACE. MMP-9 Assay Protocol […] The assay was performed in a total volume of 100 μL per well in 96-well microtitre plates. […] The fluorescence at 405 nm was measured immediately with an SLT Fluostar fluorometer (SL T Labinstruments GmbH, Grödig, Austria) using 320 nm excitation, without stopping the reaction. […]
Experimental readout: inhibition at 5 µM (%)

As a guide, the following entries are already answered.
{"Compound": "O=CN(O)C(COCc1ccccc1)CS(=O)(=O)N1CCc2ccc(Cl)cc2C1 (stereo not drawn)", "inhibition at 5 µM / %": 79}
{"Compound": "O=CN(O)C(CS(=O)(=O)N1CCc2ccc(-c3ccccc3)cc2C1)C1CCCC1 (stereo not drawn)", "inhibition at 5 µM / %": 63}
{"Compound": "CC(C)(C)CC(CS(=O)(=O)N1Cc2ccc(F)cc2C1)N(O)C=O (stereo not drawn)", "inhibition at 5 µM / %": 82}
{"Compound": "CCC(CC)C(CS(=O)(=O)N1CCc2cc(C(C)C)ccc2C1)N(O)C=O (stereo not drawn)", "inhibition at 5 µM / %": 85}
{"Compound": "CC(C)c1ccc2c(c1)CCN(S(=O)(=O)CC([C@H]1COC(C)(C)O1)N(O)C=O)C2 (stereo partly drawn)", "inhibition at 5 µM / %": 95}
{"Compound": "O=CN(O)[C@H](CS(=O)(=O)N1CCc2ccc(C(F)(F)F)cc2C1)[C@H]1CCCO1", "inhibition at 5 µM / %": 41}

[a] O=CN(O)C(CS(=O)(=O)N1CCc2ccc(Br)cc2C1)C1CCCC1 (stereo not drawn)
[b] O=CN(O)C(CS(=O)(=O)N1CCc2ccc(Cl)cc2C1)C1CC1 (stereo not drawn)
[c] O=CN(O)C(CS(=O)(=O)N1CCc2ccc(-c3cccc(O)c3)cc2C1)C1CCCC1 (stereo not drawn)
Order the items by recorded inhibition at 5 µM; the first position goes to the largest value. Give me the labels in the order the question wants. a, b, c
(a: 71%, b: 40%, c: 27%)

---

# Target desc: MMP-14 (Homo sapiens, UniProt P50281)
# Test: MMP-14 enzyme inhibition assay (coumarin-labelled peptide substrate)
# Assay type: biochemical
# Condition info: @ 0.1 μM; read-out: percentage inhibition MMP14
Experimental readout: inhibition at 0.1 µM (%)

[1] O=CN(O)C(CO)CS(=O)(=O)N1CCc2cc(Cl)c(Cl)cc2C1 (centres unmarked) [Example 49]
[2] CC1(C)OC[C@H](C(CS(=O)(=O)N2Cc3ccccc3C2)N(O)C=O)O1 (some centres unmarked) [Example 16]
[3] O=CN(O)C(CS(=O)(=O)N1CCc2cc(C(F)(F)F)ccc2C1)[C@H]1CCCO1 (some centres unmarked) [Example 47]
With the 3 molecules above, produce a list ordered by ascending inhibition at 0.1 µM. Your answer should be the labels, listed in the requested order. 2, 3, 1
(2: 0%, 3: 7%, 1: 14%)

---

# Target desc: metalloelastase (MMP-12) (Homo sapiens, UniProt P39900)
# Sequence (P39900 106-470): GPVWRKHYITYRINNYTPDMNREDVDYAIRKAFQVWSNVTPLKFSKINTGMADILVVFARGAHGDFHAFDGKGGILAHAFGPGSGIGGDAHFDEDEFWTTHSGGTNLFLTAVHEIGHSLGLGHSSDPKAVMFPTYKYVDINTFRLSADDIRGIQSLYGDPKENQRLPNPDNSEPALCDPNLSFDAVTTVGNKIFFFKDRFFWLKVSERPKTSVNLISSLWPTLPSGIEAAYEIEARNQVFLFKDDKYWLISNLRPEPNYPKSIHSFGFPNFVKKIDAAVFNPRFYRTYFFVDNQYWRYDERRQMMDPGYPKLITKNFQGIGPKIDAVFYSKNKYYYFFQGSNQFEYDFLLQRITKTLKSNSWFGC
Where a name gives a salt, the structure may show the parent alone.
Experimental readout: IC50 (nM)

{"Molecule": "CCC#CCC(C)(C)C(CS(=O)(=O)N1CCc2cc(C(F)(F)F)ccc2C1)N(O)C=O (centres unmarked) [Example 30]", "IC50 / nM": 32}
{"Molecule": "CC(C)CC(CS(=O)(=O)N1CCc2ccc(OC(C)C)cc2C1)N(O)C=O (centres unmarked) [Example 51]", "IC50 / nM": 109}
{"Molecule": "COc1ccc(C(CS(=O)(=O)N2CCc3ccccc3C2)N(O)C=O)cn1 (centres unmarked) [Example 13]", "IC50 / nM": 10}
{"Molecule": "CC(C)(C)CC(CS(=O)(=O)N1Cc2ccc(F)cc2C1)N(O)C=O (centres unmarked) [Example 26]", "IC50 / nM": 10}
{"Molecule": "CCCCCC(C)(C)C(CS(=O)(=O)N1CCc2cc(C(F)(F)F)ccc2C1)N(O)C=O (centres unmarked) [Example 63]", "IC50 / nM": 88}
{"Molecule": "CC(C)(C)C(CS(=O)(=O)N1CCc2ccc(Cl)cc2C1)N(O)C=O (centres unmarked) [Example 65]", "IC50 / nM": 27}
{"Molecule": "O=CN(O)C(CS(=O)(=O)N1CCc2ccc(F)cc2C1)c1ccoc1 (centres unmarked) [Example 52]", "IC50 / nM": 46}
{"Molecule": "O=CN(O)C(CS(=O)(=O)N1CCc2cc(C(F)(F)F)ccc2C1)[C@H]1CCCO1 (some centres unmarked) [Example 47]", "IC50 / nM": 2.5}
{"Molecule": "O=CN(O)C(CS(=O)(=O)N1CCc2ccc(-c3ccccc3)cc2C1)C1CCCC1 (centres unmarked) [Example 69]", "IC50 / nM": 18}
{"Molecule": "O=CN(O)C(CS(=O)(=O)N1CCc2ccccc2C1)c1cccnc1 (centres unmarked) [Example 11, hydrochloride salt]", "IC50 / nM": 26}

[A] O=CN(O)C(CS(=O)(=O)N1CCc2ccc(C(F)(F)F)cc2C1)C1CCCC1 (centres unmarked) [Example 82]
[B] O=CN(O)[C@H](CS(=O)(=O)N1Cc2ccc(F)cc2C1)[C@H]1CCCO1 [Example 29]
[C] O=CN(O)C(CS(=O)(=O)N1CCc2ccccc2C1)c1cncnc1 (centres unmarked) [Example 9]
[D] CCOC(=O)C1CC1C(CS(=O)(=O)N1CCc2cc(OC)c(OC)cc2C1)N(O)C=O (centres unmarked) [Example 67]
[E] CC(C)c1ccc2c(c1)CCN(S(=O)(=O)CC([C@H]1COC(C)(C)O1)N(O)C=O)C2 (some centres unmarked) [Example 18]
Order the records, beginning with the lowest IC50 and ending with the highest. Provide the labels, sequenced as the question asks. E, B, A, C, D
(E: 1.4 nM, B: 14 nM, A: 26 nM, C: 49 nM, D: 111 nM)

[a] O=CN(O)[C@H](CS(=O)(=O)N1CCc2ccc(Cl)cc2C1)[C@H]1CCCO1 [Example 23]
[b] CC(C)(C)CC(CS(=O)(=O)N1CCc2ccc(Cl)cc2C1)N(O)C=O (centres unmarked) [Example 41]
Lab note: check whether a or b has the lower measured IC50. Use the label to indicate which entry you chose. b

---

# Target desc: UniProt P50281
# Test: MMP-14 enzyme inhibition assay (coumarin-labelled peptide substrate)
# Format: biochemical
# Condition info: @ 0.1 μM; read-out: percentage inhibition MMP14
Experimental readout: inhibition at 0.1 µM (%)

{"Compound": "CC(C)C(CS(=O)(=O)N1CCc2ccc(-c3ccc(F)cc3)cc2C1)N(O)C=O (stereo not shown)", "Value reported": 13}

[A] O=CN(O)C(COCc1ccccc1)CS(=O)(=O)N1CCc2ccc(Cl)cc2C1 (stereo not shown)
[B] O=CN(O)C(CS(=O)(=O)N1CCc2cc(C(F)(F)F)ccc2C1)C1CCCC1 (stereo not shown)
[C] O=CN(O)C(CS(=O)(=O)N1CCc2ccc(-c3ccsc3)cc2C1)C1CCCC1 (stereo not shown)
Arrange items by their inhibition at 0.1 µM values in increasing order. The labels, placed in the requested order, form the answer. C, B, A
(C: -30%, B: 0%, A: 11%)
